Recorded values, source patent US20030138485A1.

- TEST PROTOCOL: Measurement of viscosity of a saturated aqueous solution
- Type: physicochemical
- CONDITION SET: B-type viscometer
MEASUREMENT TYPE: Viscosity (37° C.) (mPa · s)
Kindly provide the numeric value in mPa · s only, without the unit symbol.

Query block: Annotate the molecule CC(=O)[O-].[K+] [Potassium acetate] with its measured Viscosity (37° C.).
Result block: 30

Next:
Query block: Annotate the molecule OC[C@@H](O)[C@H](O)[C@@H](O)CO with its measured Viscosity (37° C.).
Result block: 37

Query block: Annotate the molecule OC[C@@H](O)[C@@H](O)CO with its measured Viscosity (37° C.).
Result block: 3.5

Query block: Annotate the molecule OC[C@H]1O[C@@H](O[C@H]2[C@H](O)[C@@H](O)C(O)O[C@@H]2CO)[C@H](O)[C@@H](O)[C@H]1O (stereo partly shown) [Lactose, reference compound] with its measured Viscosity (37° C.).
Result block: 1.7
